Could you please report measured growth for the items listed next?
System: K-562 leukemia
Assay: NCI-60 one-dose screen, 48 h (100 = growth as untreated, 0 = no growth, -100 = all killed)
Conditions: 10 µM unless noted
This is part of a sample that, as a whole, favours compounds with a hit. Of some 83,000 tested, about 20% had one in any assay.
Numbers only, in %.

                                   compound  target_of_assay  observation_type  observed
0  CCCCn1c(C)nc2cc(Nc3nc(N4CCCCC4)nc4nc[nH]c34)ccc21   K-562 leukemia            growth      28.7
1  CCCCCCCC12Cc3ccccc3C1=Nc1c(c3ccccc3n1C)C2=O (stereo not given)   K-562 leukemia            growth      85.9
2      COc1cc2cc(NCc3ccc(F)cc3)nc(C)c2cc1OC   K-562 leukemia            growth      11.7

Would you mind listing growth for each of the following compounds?
1. CCn1c(-c2nonc2N)nc2c(C#CC(C)(C)O)ncc(OC[C@H]3CCCNC3)c21
2. Cc1cc(O)c2c(c1)C1OC(=O)CCCCCN1C1=C2C(=O)c2cccc(OC3CC(O)C(O)C(C)O3)c2C1=O (stereo not given)

Reply:
1. 38.8
2. 28.3

###

Tested on: CAKI-1 renal
Test: NCI-60 one-dose screen, 48 h
Conditions: 10 µM unless noted
About 83,000 compounds went through this panel and 20% of them were active in at least one assay; those are over-represented in the sample as a whole. Active and inactive are the calls of the source. How the source made its calls: active means growth percent below 10; inactive means the rest.
Return exactly one item of active, inactive

Structure	Label
CC(C)(C)CC(C)(C)Nc1c(-c2c(O)c3ccccc3oc2=O)nc2c(Cl)cc(C(F)(F)F)cn12	inactive
COC(=O)[C@]12CC[C@@H](C)[C@H](C)[C@@H]1C1=CC[C@@H]3[C@@]4(C)C[C@@H](OC(=O)/C=C/c5ccccc5)[C@H](O)[C@@](C)(CO)[C@@H]4[C@H](O)C[C@@]3(C)[C@]1(C)CC2	inactive
Cc1ccc(-[n+]2c3cc(N)c(C)cc3nc3cc(C)c(Nc4ccccc4)cc32)cc1	active
COc1cccc(NC(=O)Nc2ccc(Nc3ncnc4sc5c(c34)CCN(C(=O)CCl)C5)cc2)c1	inactive

Ask: Name the outcome recorded for `CNc1ncc2cc(-c3cc(NC(=O)NCCC(C)(C)C)c(F)cc3C)c(C)nc2n1` in the assay.
Reply: active

Ask: What classification did `O=C(Cc1ccc(-c2ccc(OCCN3CCOCC3)cc2)cn1)NCc1ccccc1` end up with in this test?
Reply: inactive

Ask: Name the outcome recorded for `COCCN1CCN(Cc2ccc(-c3n[nH]c4c3C(=O)c3c(NC(=O)NN5CCOCC5)cccc3-4)cc2)CC1` in the assay.
Reply: active

Ask: What is the recorded call for this compound in the test? `O=C1NC(=O)/C(=C/c2ccc3nccc(-c4ccncc4)c3c2)S1`
Reply: active

###

Tested on: OVCAR-4 ovarian
Assay: NCI-60 one-dose screen, 48 h (100 = growth as untreated, 0 = no growth, -100 = all killed)
Conditions: 10 µM unless noted
Compounds without any hit were thinned out: in the full panel of roughly 83,000, 20% have a hit.
Classify by measured growth: criterion met if it is equal to or exceeds 80%, criterion not met if it is smaller.

Example cases with answers are listed next.
In [3]: df
Out[3]:
                                   compound              label
0  Cc1ccc(NC(=O)Nc2ccc(Nc3ncnc4sc5c(c34)CCOC5)cc2)cc1Cl      criterion met
1    CC1(C=O)NC(=O)NC1=O (stereo not given)      criterion met
2    N#Cc1cc2[nH]c3ccc(OC(F)(F)F)cc3c2oc1=O  criterion not met

Ask: Is growth at least 80%? Consider `CCN1CCN(CCCN(C[C@H]2Cc3ccccc3CN2)[C@H]2CCCc3cccnc32)CC1`
Reply: criterion met

Ask: // inclusive: growth at least 80%? input: `CCN1CCN(Cc2ccc(NC(=O)Nc3nc(-c4cc(OC)c(OC)c(OC)c4)cs3)cc2C(F)(F)F)CC1`
Reply: criterion not met

Ask: Reported growth reaches at least 80% for `CC(C)NC[C@@H](C(=O)N1CCN(c2ncnc3c2[C@H](C)C[C@H]3O)CC1)c1ccc(Cl)cc1` ?
Reply: criterion not met

Ask: Determine whether measured growth meets or exceeds 80% for COc1ccc(C2CC(=O)c3c(O)c(OC)c(OC)c(OC)c3O2)cc1O (stereo not given)
Reply: criterion not met

Ask: Please check the record `N#Cc1c(C(F)(F)F)cc(Nc2ccc3nc(NCCN4CCCC4)oc3c2)n2c1nc1ccccc12` and state if its growth is at or above 80%.
Reply: criterion not met

Ask: Dear colleague, could you confirm whether `COc1cc2ncnc(Nc3ccc(O)cc3)c2cc1OC` has growth at or above 80%?
Reply: criterion met

Ask: For this compound, is measured growth 80% or higher? `O=C(c1ccc(/C=C/c2n[nH]c3ccccc23)cc1)N1CCNCC1`
Reply: criterion not met

###

So I've got a bunch of compounds here, and I need their growth values.
System: NCI-H460 lung
Experiment: NCI-60 one-dose screen, 48 h (100 = growth as untreated, 0 = no growth, -100 = all killed)
Conditions: 10 µM unless noted
About 83,000 compounds went through this panel and 20% of them were active in at least one assay; those are over-represented in the sample as a whole.
Give bare numbers, in %.

Okay, here is my list. What is growth for each of these?
1. Cc1nn(-c2ccccc2)c2c1N=c1s/c(=C\c3cn(-c4ccccc4)nc3-c3ccc(Cl)cc3)c(=O)n1C(C)N2 (centres undefined)
2. C[C@@H](Oc1cc(-n2cnc3ccc(CN4CCN(C)CC4)cc32)sc1C(N)=O)c1ccccc1C(F)(F)F
3. O=C(Nc1cn[nH]c1-c1nc2ccc(CN3CCOCC3)cc2[nH]1)NC1CC1
4. C/C(=C(/c1ccc(Cl)cc1)c1ccc(OCCN2CCCCC2)cc1)c1ccccc1
5. Nc1c(C(=O)c2ccccc2)sc2nc(-c3cccs3)ccc12
6. Cc1ccccc1Nc1nc2nonc2nc1Nc1cccc(C)c1C

Reply:
1. 93
2. 8.47
3. 34.4
4. 74.4
5. 12.1
6. 41.1

###

Tested on: SNB-19 CNS
Assay: NCI-60 one-dose screen, 48 h
Details: 10 µM unless noted
About 83,000 compounds went through this panel and 20% of them were active in at least one assay; those are over-represented in the sample as a whole. Activity calls are given as the source filed them. How the source made its calls: active means growth percent below 10; inactive means the rest.
Pick from active, inactive when you respond.

>>> print(df.to_string())
                                  structure     label
0   O=c1[nH]c(N2CCOCC2)nc2scc(-c3ccccc3)c12  inactive
1  COc1cc(F)c(F)c(Nc2ccc(I)cc2F)c1NS(=O)(=O)C1(C[C@H](O)CO)CC1  inactive

Ask: State the result this test recorded for `CCn1cc(-c2ccnc3[nH]c(-c4cccc(CN(C)C)c4)cc23)c(-c2ccc(NC(=O)N(C)C)cc2)n1` .
Reply: inactive

Ask: For `Clc1ccc2c(NCCCNCc3ccc4c(c3)OCO4)ccnc2c1` , which call appears in the assay record?
Reply: inactive

Ask: Hello, I am checking results. What call was entered for `C1=C\COCc2cc(ccc2OCCN2CCCC2)Nc2nccc(n2)-c2cccc(c2)COC/1` ?
Reply: active

###

For each record, write down the corresponding growth.
Tested on: SK-OV-3 ovarian
Assay: NCI-60 one-dose screen, 48 h (100 = growth as untreated, 0 = no growth, -100 = all killed)
Conditions: 10 µM unless noted
This is part of a sample that, as a whole, favours compounds with a hit. Of some 83,000 tested, about 20% had one in any assay.
One number for each entry, in %.

// each listed molecule needs a value for growth
1. CCN(CC)Cc1cc(Nc2cc(C(F)(F)F)c(C#N)c3nc4ccccc4n23)ccc1O
2. Cn1nccc1Nc1nccc(-c2ccn([C@H](CO)c3ccc(Cl)c(F)c3)c(=O)c2)n1
3. CC(C)=CCc1cc2c(cc1O)C1=C(C(=O)C3=C(C1=O)S(=O)(=O)CCN3)C(C=C(C)C)O2 (centres undefined)
4. CC(N)C(Cc1ccccc1)c1ccc(Cl)cc1 (centres undefined)
5. CNC(=O)c1nn(C)c2c1C(C)(C)Cc1cnc(Nc3ccc(N4CCN(C)CC4)cc3)nc1-2
6. COc1cc(C(=O)NNC(=O)c2ccc(NC(=O)CCl)cc2)cc(OC)c1OC

Reply:
1. -10.8
2. 119
3. -3.23
4. 72.5
5. -16.9
6. 99.1

Okay, here is my list. What is growth for each of these?
1. CCN1CCN(Cc2ccc(NC(=O)Nc3nc(-c4cc(OC)c(OC)c(OC)c4)cs3)cc2C(F)(F)F)CC1
2. COC(=O)[C@]12CC[C@@H](C)[C@H](C)[C@@H]1C1=CC[C@@H]3[C@@]4(C)C(c5cnco5)=C[C@@](C)(CO)C4=CC[C@@]3(C)[C@]1(C)CC2
3. Cc1cc(C(O)CN(C)C)cc2c1ccc1cc(C(C)C)ccc12 (centres undefined)

Reply:
1. 36.1
2. 67.2
3. 83.7
